pEC50 values for the compounds below.
Test system: Human immunodeficiency virus 1
Test: Antiviral activity against HIV1 3B infected in human CEM cells assessed as inhibition of virus-induced cytopathicity after 4 days
Format: functional, organism-based
Conditions: Human immunodeficiency virus 1, 3B, CCRF-CEM, 96 h
pEC50: −log10 of the molar value.

Some entries whose results are on file:
[[record]]
smiles = "O=C(O)[C@H](Cc1ccc(O)cc1)Nc1nc(NCCOCCOCCNc2nc(N[C@@H](Cc3ccc(O)cc3)C(=O)O)nc(N[C@H](Cc3ccc(O)cc3)C(=O)O)n2)nc(N[C@@H](Cc2ccc(O)cc2)C(=O)O)n1"
target_desc = "Human immunodeficiency virus 1"
result = "< 3.60"

[[record]]
smiles = "O=C(O)[C@H](Cc1ccccc1)Nc1nc(NCc2cccc(CNc3nc(N[C@@H](Cc4ccccc4)C(=O)O)nc(N[C@@H](Cc4ccccc4)C(=O)O)n3)c2)nc(N[C@@H](Cc2ccccc2)C(=O)O)n1"
target_desc = "Human immunodeficiency virus 1"
result = "< 5.00"

[[record]]
smiles = "O=C(O)C[C@H](Nc1nc(NCCN(CCNc2nc(N[C@@H](CC(=O)O)C(=O)O)nc(N[C@@H](Cc3c[nH]c4ccccc34)C(=O)O)n2)CCNc2nc(N[C@@H](Cc3c[nH]c4ccccc34)C(=O)O)nc(N[C@H](CC(=O)O)C(=O)O)n2)nc(N[C@@H](Cc2c[nH]c3ccccc23)C(=O)O)n1)C(=O)O"
target_desc = "Human immunodeficiency virus 1"
result = 3.67


We next turn to a different compound, shown below.
**Q:** Tell me its pEC50 given O=C(O)[C@H](Cc1ccc(O)cc1)Nc1nc(N[C@@H](Cc2ccc(O)cc2)C(=O)O)nc(N2CCN(c3nc(N[C@@H](Cc4ccc(O)cc4)C(=O)O)nc(N[C@@H](Cc4ccc(O)cc4)C(=O)O)n3)CC2)n1 as the entry.
**A:** ≤ 3.60
